B1: TPR t1 (parent)
chain: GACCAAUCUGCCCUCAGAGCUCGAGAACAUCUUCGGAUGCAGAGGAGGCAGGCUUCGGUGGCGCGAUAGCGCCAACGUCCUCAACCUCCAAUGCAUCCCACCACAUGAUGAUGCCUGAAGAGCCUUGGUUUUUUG

variants of: B1; assay: polymerase ribozyme fitness, log enrichment relative to wild type (log ratio); higher = more active; in vitro selection for triplet polymerase activity
Listed variants paired with reported polymerase ribozyme fitness (log ratio)
Just the number, please, no unit after it.

- mutation-descriptor: "C8U G44A"
  assay-metric: "polymerase ribozyme fitness (log ratio)"
  assay-value: -0.0714

*Q* Answer with the recorded polymerase ribozyme fitness (log ratio) of A27C G47A U54G G57U only.
*A* -1.6

*Q* Look up and state reported polymerase ribozyme fitness (log ratio) for C3U C72G A90U U106A
*A* -1.94

*Q* Note polymerase ribozyme fitness (log ratio) for the variant shown: C3G G36U C79U C89G C123G U133G
*A* -3.18

*Q* Give recorded polymerase ribozyme fitness (log ratio). C15A A16U C88A
*A* -3.46

*Q* Using the record for C62A C79U C88G G135U , state its measured polymerase ribozyme fitness (log ratio).
*A* -2.35

*Q* Give polymerase ribozyme fitness (log ratio) for G60A C64U
*A* -2.43

*Q* Give reported polymerase ribozyme fitness (log ratio) value for A46C G57C
*A* -0.329

*Q* State, in one line, measured polymerase ribozyme fitness (log ratio) of G39U C114U G120A G127C
*A* -2.98

*Q* Consider the variant C15U C28A C72U C76G A121C and give its recorded polymerase ribozyme fitness (log ratio).
*A* -3.19

*Q* Specify polymerase ribozyme fitness (log ratio) for A6G C8A and stop.
*A* -0.14
